# ASSAYED SYSTEM: T1, EsCas13d, nuclease-dead (Eubacterium siraeum, UniProt B0MS50, R295A;H300A;R849A;H854A)
# T1 sequence: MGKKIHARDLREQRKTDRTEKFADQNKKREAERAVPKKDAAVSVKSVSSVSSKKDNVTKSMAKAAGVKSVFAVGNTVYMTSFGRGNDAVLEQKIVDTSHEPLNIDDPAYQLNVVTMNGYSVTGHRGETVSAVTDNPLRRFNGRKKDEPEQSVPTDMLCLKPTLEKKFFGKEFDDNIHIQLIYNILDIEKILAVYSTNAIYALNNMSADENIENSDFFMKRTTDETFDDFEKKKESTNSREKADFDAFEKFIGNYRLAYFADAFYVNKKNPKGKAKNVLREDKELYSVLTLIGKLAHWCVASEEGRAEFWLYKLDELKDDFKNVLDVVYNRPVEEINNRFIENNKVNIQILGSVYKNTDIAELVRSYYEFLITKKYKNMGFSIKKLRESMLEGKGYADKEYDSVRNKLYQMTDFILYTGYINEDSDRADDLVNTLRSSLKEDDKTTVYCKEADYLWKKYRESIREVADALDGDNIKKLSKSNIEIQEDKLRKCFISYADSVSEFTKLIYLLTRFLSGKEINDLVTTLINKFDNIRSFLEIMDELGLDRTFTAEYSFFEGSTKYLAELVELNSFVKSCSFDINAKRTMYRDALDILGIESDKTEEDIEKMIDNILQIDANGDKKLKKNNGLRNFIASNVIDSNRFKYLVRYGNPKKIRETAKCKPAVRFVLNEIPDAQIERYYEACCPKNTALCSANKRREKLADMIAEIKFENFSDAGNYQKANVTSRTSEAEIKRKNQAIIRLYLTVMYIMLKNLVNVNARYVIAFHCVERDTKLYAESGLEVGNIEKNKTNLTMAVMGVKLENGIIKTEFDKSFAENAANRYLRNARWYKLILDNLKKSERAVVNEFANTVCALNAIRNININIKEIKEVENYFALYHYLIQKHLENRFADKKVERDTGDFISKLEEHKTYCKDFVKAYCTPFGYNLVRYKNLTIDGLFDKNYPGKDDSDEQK
# PROTOCOL NOTES: crRNA (strand 1, pre-loaded); Mg2+; 40 mM Tris-HCl pH 7.5, 150 mM NaCl, 6 mM MgCl2, 1 mM DTT, 0.1% Tween-20, 0.2 mg/ml BSA; 25 C; 10 min per concentration, then washed
# CONDITION INFO: tags: His6-TwinStrep-SUMO cleaved; N-terminal SNAP kept (SNAP-Surface 488); label: 3' end held by stalled T7 RNA polymerase
Reported Kd values are given for each entry in this list.
Kindly provide the numeric value in nM only, without the unit symbol.

BINDER: target 1 MT 5'PFS UUG 3'PFS AUG (mixed) RNA 1: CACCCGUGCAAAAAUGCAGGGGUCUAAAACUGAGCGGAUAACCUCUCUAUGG RNA 2: GGGAAUGGAUCCACAUCUACGAAUUCUUGCCAUAGAGAGGUUAUCCGCUCAAUGAGAUCGGAAGAGCACACGU
READOUT NAME: Kd
UNIT OF MEASUREMENT: nM
VAL: 83

Can you look up the measured Kd of target 1 MT 5'PFS GGC 3'PFS AUC (mixed) RNA 1: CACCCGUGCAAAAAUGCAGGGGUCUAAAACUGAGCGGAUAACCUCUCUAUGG RNA 2: GGGAAUGGAUCCACAUCUACGAAUUCGGCCCAUAGAGAGGUUAUCCGCUCAAUCAGAUCGGAAGAGCACACGU for me? 42.5

Recorded Kd of target 1 insG 3' of 22,insU 3' of 20 (mixed) RNA 1: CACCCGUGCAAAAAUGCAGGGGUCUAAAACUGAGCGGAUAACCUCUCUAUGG RNA 2: GGGAAUGGAUCCACAUCUACGAAUUCGUACGCAUUAGAGAGGUUAUCCGCUCACCGAGAUCGGAAGAGCACACGU , please. 38

Can you share its Kd? I mean this binder: target 1 insA 3' of 19,insA 3' of 4 (mixed) RNA 1: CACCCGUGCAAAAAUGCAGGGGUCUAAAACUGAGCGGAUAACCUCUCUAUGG RNA 2: GGGAAUGGAUCCACAUCUACGAAUUCGUACCAUAAGAGAGGUUAUCCGCAUCACCGAGAUCGGAAGAGCACACGU 16

Which Kd value is on record for target 1 insC 3' of 14,insU 3' of 6 (mixed) RNA 1: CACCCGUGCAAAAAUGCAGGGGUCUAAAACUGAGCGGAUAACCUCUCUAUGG RNA 2: GGGAAUGGAUCCACAUCUACGAAUUCGUACCAUAGAGACGGUUAUCCUGCUCACCGAGAUCGGAAGAGCACACGU ? 53

Can you share its Kd? I mean this binder: target 1 MT 5'PFS GCA 3'PFS AGU (mixed) RNA 1: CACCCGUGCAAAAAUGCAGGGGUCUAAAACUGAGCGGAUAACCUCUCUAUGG RNA 2: GGGAAUGGAUCCACAUCUACGAAUUCGCACCAUAGAGAGGUUAUCCGCUCAAGUAGAUCGGAAGAGCACACGU 23

Record request: Kd value, item target 3 G3U,A5G (mixed) RNA 1: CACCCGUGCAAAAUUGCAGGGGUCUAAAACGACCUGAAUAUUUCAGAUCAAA RNA 2: GGGAAUGGAUCCACAUCUACGAAUUCGUUUUUGAUCUGAAAUAUUCGGUUCUGCAGAUCGGAAGAGCACACGU 25.4

// returns reported Kd for input target 1 insC 3' of 5,insC 3' of 5 (mixed) RNA 1: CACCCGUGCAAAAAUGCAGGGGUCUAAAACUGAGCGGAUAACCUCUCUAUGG RNA 2: GGGAAUGGAUCCACAUCUACGAAUUCGUACCAUAGAGAGGUUAUCCGCCCUCACCGAGAUCGGAAGAGCACACGU 25.7

Data provenance: paper PMC10786891
